Would you mind telling me the reported IC50 of each entry?
# Target Entity: PDE10A (H-PDE10A2, Human Phosphodiesterase 10A2) (Homo sapiens (Human), UniProt Q9Y233)
# Sequence (Q9Y233 267-1055): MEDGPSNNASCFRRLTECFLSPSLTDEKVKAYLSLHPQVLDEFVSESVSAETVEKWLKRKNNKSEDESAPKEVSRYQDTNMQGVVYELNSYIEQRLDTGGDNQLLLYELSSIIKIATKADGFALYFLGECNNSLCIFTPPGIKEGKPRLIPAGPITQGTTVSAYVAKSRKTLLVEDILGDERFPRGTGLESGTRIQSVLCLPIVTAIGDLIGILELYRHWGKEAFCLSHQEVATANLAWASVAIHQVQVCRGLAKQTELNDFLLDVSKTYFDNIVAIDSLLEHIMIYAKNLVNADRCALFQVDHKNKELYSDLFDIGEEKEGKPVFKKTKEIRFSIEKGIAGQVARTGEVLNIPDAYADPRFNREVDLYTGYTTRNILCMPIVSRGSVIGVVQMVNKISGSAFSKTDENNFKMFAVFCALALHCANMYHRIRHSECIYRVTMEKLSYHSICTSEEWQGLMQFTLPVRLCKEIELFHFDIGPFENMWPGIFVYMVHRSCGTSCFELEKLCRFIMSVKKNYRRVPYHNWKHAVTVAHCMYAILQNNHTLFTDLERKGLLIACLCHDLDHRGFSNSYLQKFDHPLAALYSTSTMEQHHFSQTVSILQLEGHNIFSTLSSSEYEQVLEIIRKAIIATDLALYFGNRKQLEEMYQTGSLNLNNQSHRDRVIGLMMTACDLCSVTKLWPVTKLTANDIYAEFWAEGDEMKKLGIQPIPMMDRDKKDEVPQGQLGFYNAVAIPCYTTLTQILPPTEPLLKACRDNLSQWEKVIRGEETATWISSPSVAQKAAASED
# Experimental Details: Measurement of PDE10A inhibitory activity-1 (3H-cAMP, recombinant enzyme)
# Format: biochemical
# Experimental Setup: H-PDE10A2, 64 nM cAMP, 25° C., 2 hours; hydrobromide
Counter-ions that a name gives are not always drawn.
Give bare numbers, in nM.

Some compounds with known IC50 results, for comparison:
Br.COCc1ccc(C(C)=O)c2sc(C(=O)Nc3ccc4c(CS(C)(=O)=O)cccc4n3)c(C)c12 [Example 112, hydrobromide] | 0.84
COCc1ccc(C(C)=O)c2sc(C(=O)Nc3ccc4c(C(=O)N5CC(OC)C5)cccc4n3)c(C)c12 [Example 107, hydrobromide] | 0.73
COCc1ccc(C(C)=O)c2sc(C(=O)Nc3cc(C(C)(C)O)c4ccccc4n3)c(C)c12 [Example 28, hydrobromide] | 2

Proceeding to the next compound to report its IC50.
*Q* # get_value(readout= IC50, system= PDE10A (H-PDE10A2, Human Phosphodiesterase 10A2) (Homo sapiens (Human), UniProt Q9Y233)) for CC(=O)c1ccc(C(C)=O)c2c(C)c(C(=O)Nc3cc(C(C)(C)O)c4ccccc4n3)sc12 [Example 4, hydrobromide]
*A* 5.8

---

# Target Entity: PDE10A (H-PDE10A2, Human Phosphodiesterase 10A2) (Homo sapiens (Human))
# Experimental Details: Measurement of PDE10A inhibitory activity-1 (3H-cAMP, recombinant enzyme)
# Format: biochemical
# Experimental Setup: H-PDE10A2, 64 nM cAMP, 25° C., 2 hours; benzenesulfonate
Measure: pIC50
One number for each entry, as −log10 of the molar value.

*Q* Which value of pIC50 has been reported for COCc1ccc(C(C)=O)c2sc(C(=O)Nc3ccc4c(C(=O)N5CC(OC)C5)cccc4n3)c(C)c12 [Example 104, benzenesulfonate] in the records?
*A* 8.66

---

# Target Entity: PDE10A (H-PDE10A2, Human Phosphodiesterase 10A2) (Homo sapiens (Human))
# Experimental Details: Measurement of PDE10A inhibitory activity-1 (3H-cAMP, recombinant enzyme)
# Format: biochemical
# Experimental Setup: H-PDE10A2, 64 nM cAMP, 25° C., 2 hours
Just a reminder that ties go to label 0: only IC50 strictly below 0.7 nM counts as label 1.

For orientation, consider the following solved cases.
COCc1ccc(C(C)=O)c2sc(C(=O)Nc3cc(CN4CC[C@H](O)C4)c4ccccc4n3)c(C)c12 | label 1
COCc1ccc(C(C)=O)c2sc(C(=O)Nc3cc(CN4CC[C@@H](O)C4)c4ccccc4n3)c(C)c12 | label 1
CC(=O)c1ccc(C(C)=O)c2c(C)c(C(=O)Nc3cc(C(C)(C)O)c4ccccc4n3)sc12 | label 0
COCc1cccc2nc(NC(=O)c3sc4c(C(C)=O)ccc(COC)c4c3C)ccc12 | label 0

Now look at this one.
*Q* Check if IC50 falls below 0.7 nM for COCc1ccc(C(C)=O)c2sc(C(=O)Nc3ccc4c(CS(C)(=O)=O)cccc4n3)c(C)c12 .
*A* label 1

---

Would you mind telling me the reported pIC50 of each entry?
# Target Entity: PDE10A (Homo sapiens (Human))
# Experimental Details: Measurement of PDE10A inhibitory activity-2 (PDE10A fraction prepared from MOLT-4 cells)
# Assay type: biochemical
# Experimental Setup: PDE10A fraction from MOLT-4 cells (peak around 250 mM NaCl)
Structures can show the parent of a compound that is named as a salt.
Answers are plain numbers, as −log10 of the molar value.

// batch mode: one pIC50 value per listed entry
1. CC(=O)c1ccc(C(C)=O)c2c(C)c(C(=O)Nc3cc(C)c4ccccc4n3)sc12
2. CCC(CC)C(=O)c1cccc2c(C)c(C(=O)Nc3cc(C(C)(C)O)c4ccccc4n3)sc12
3. COCc1ccc(C(C)=O)c2sc(C(=O)Nc3cc(CN4CCCC(O)C4)c4ccccc4n3)c(C)c12 (stereo not drawn)
4. CC(=O)c1ccc(C(C)=O)c2c(C)c(C(=O)Nc3cc(C(C)O)c4ccccc4n3)sc12 (stereo not drawn)
5. COCc1ccc(C(C)=O)c2sc(C(=O)Nc3cc(CN4CCN(C)CC4)c4ccccc4n3)c(C)c12
6. CC(=O)c1ccc(C(C)=O)c2c(C)c(C(=O)Nc3ccc4ccccc4n3)sc12

*A*
8.66
7.60
9.30
8.70
9.10
8.80

// batch mode: one pIC50 value per listed entry
1. COCc1ccc(C(C)=O)c2sc(C(=O)Nc3ccc4c(C(=O)N5CC(O)C5)cccc4n3)c(C)c12
2. COC(C)c1ccc(C(C)=O)c2sc(C(=O)Nc3cc(C(C)(C)O)c4ccccc4n3)c(C)c12 (stereo not drawn)
3. COCc1ccc(C(C)=O)c2sc(C(=O)Nc3cc(C(C)(C)O)c4ccccc4n3)c(C)c12
4. [2H]C([2H])(OC)c1ccc(C(C)=O)c2sc(C(=O)Nc3cc(C([2H])([2H])N4CC[C@@H](O)C4)c4ccccc4n3)c(C)c12
5. Cc1c(C(=O)Nc2cc(C(C)(C)O)c3ccccc3n2)sc2c(C(=O)C3CC3)cccc12
6. Cc1c(C(=O)Nc2cc(C(C)(C)O)c3ccccc3n2)sc2c(C(=O)C(C)(C)C)cccc12
7. CCc1c(C(=O)Nc2cc(C(C)(C)O)c3ccccc3n2)sc2c(C(C)=O)ccc(C(C)=O)c12

*A*
1. 9.96
2. 8.04
3. 8.74
4. 9.82
5. 9.04
6. 9.00
7. 8.30

// batch mode: one pIC50 value per listed entry
1. COCc1ccc(C(C)=O)c2sc(C(=O)Nc3cc(CN4CCC(O)C4)c4ccccc4n3)c(C)c12 (stereo not drawn)
2. CCCOCc1ccc(C(C)=O)c2sc(C(=O)Nc3cc(C(C)(C)O)c4ccccc4n3)c(C)c12
3. COCc1cccc2nc(NC(=O)c3sc4c(C(C)=O)ccc(CO)c4c3C)ccc12
4. CCCC(=O)c1cccc2c(C)c(C(=O)Nc3cc(C(C)(C)O)c4ccccc4n3)sc12
5. COCc1ccc(C(C)=O)c2sc(C(=O)Nc3ccc4c(C(=O)O)cccc4n3)c(C)c12
6. COCc1ccc(C(C)=O)c2sc(C(=O)Nc3cc(C(C)O)c4ccccc4n3)c(C)c12 (stereo not drawn) [Example 33, hydrochloride]
7. COCc1ccc(C(C)=O)c2sc(C(=O)Nc3cc(N)c4ccccc4n3)c(C)c12

*A*
9.54
7.96
9.92
8.59
9.96
9.05
10.27

---

# Target Entity: PDE10A (H-PDE10A2, Human Phosphodiesterase 10A2) (Homo sapiens (Human), UniProt Q9Y233)
# Experimental Details: Measurement of PDE10A inhibitory activity-1 (3H-cAMP, recombinant enzyme)
# Assay type: biochemical
# Experimental Setup: H-PDE10A2, 64 nM cAMP, 25° C., 2 hours; hydrochloride
Where a name gives a salt, the structure may show the parent alone.
Measure: log10 IC50 (log10 of the value in nM)
// do not treat as linear: log10 of IC50, unit nM

Some molecules with known log10 IC50 results, for comparison:
COCc1cccc2nc(NC(=O)c3sc4c(C(C)=O)ccc(COC)c4c3C)ccc12.Cl [Example 68, hydrochloride] | 0.28
COCc1ccc(C(C)=O)c2sc(C(=O)Nc3ccc4c(C(=O)N5CC(OC)C5)cccc4n3)c(C)c12 [Example 103, hydrochloride] | -0.51
COCc1ccc(C(C)=O)c2sc(C(=O)Nc3cc(CN4CC[C@@H](O)C4)c4ccccc4n3)c(C)c12 [Example 40, hydrochloride] | -0.19
CC(=O)c1ccc(C(C)=O)c2c(C)c(C(=O)Nc3cc(C(C)(C)O)c4ccccc4n3)sc12 [Example 3, hydrochloride] | 0.77
COCc1ccc(C(C)=O)c2sc(C(=O)Nc3ccc4c(CS(C)(=O)=O)cccc4n3)c(C)c12 [Example 110, hydrochloride] | 0.15

Proceeding to the next molecule to report its log10 IC50.
*Q* Which value of log10 IC50 has been reported for COCc1ccc(C(C)=O)c2sc(C(=O)Nc3cc(C(C)(C)O)c4ccccc4n3)c(C)c12 [Example 27, hydrochloride] in the records?
*A* 0.20

---

# Target Entity: PDE10A (Homo sapiens (Human), UniProt Q9Y233)
# Sequence (Q9Y233 whole entry): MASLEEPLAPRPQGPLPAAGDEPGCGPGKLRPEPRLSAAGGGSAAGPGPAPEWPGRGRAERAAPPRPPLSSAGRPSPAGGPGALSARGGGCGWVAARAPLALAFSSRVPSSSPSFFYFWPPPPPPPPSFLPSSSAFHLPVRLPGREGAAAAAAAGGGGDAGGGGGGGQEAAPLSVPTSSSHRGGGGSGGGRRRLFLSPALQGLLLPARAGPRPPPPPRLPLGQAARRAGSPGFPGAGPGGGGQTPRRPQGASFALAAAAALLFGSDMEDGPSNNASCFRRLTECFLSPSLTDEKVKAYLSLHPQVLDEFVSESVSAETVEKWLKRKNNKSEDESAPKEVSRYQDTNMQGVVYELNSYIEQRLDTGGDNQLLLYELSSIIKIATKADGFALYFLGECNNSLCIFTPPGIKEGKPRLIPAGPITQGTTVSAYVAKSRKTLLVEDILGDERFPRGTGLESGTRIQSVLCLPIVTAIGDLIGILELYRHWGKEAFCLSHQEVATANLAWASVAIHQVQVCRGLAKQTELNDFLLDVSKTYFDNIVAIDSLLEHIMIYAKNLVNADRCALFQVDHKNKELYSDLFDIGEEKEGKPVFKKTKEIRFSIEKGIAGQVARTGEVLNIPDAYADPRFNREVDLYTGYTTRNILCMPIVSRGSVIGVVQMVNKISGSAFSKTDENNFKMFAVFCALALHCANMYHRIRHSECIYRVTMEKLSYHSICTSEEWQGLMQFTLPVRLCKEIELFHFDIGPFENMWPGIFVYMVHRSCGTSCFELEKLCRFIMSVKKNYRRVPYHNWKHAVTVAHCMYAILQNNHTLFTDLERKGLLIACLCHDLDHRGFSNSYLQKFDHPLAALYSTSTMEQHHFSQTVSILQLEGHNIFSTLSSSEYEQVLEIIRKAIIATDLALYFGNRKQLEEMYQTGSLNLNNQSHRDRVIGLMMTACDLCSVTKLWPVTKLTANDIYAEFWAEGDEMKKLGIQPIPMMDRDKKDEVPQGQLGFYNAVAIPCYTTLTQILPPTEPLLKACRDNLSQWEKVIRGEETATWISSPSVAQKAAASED
# Experimental Details: Measurement of PDE10A inhibitory activity-2 (PDE10A fraction prepared from MOLT-4 cells)
# Assay type: biochemical
# Experimental Setup: PDE10A fraction from MOLT-4 cells (peak around 250 mM NaCl); methanesulfonate
Measure: pIC50
One number for each entry, as −log10 of the molar value.

*Q* # get_value(readout= pIC50, system= PDE10A (Homo sapiens (Human), UniProt Q9Y233)) for COCc1cccc2nc(NC(=O)c3sc4c(C(C)=O)ccc(COC)c4c3C)ccc12 [Example 69, methanesulfonate]
*A* 9.42

---

Would you mind telling me the reported pIC50 of each entry?
# Target Entity: PDE10A (H-PDE10A2, Human Phosphodiesterase 10A2) (Homo sapiens (Human))
# Experimental Details: Measurement of PDE10A inhibitory activity-1 (3H-cAMP, recombinant enzyme)
# Type: biochemical
# Experimental Setup: H-PDE10A2, 64 nM cAMP, 25° C., 2 hours; methanesulfonate
Answers are plain numbers, as −log10 of the molar value.

COCc1ccc(C(C)=O)c2sc(C(=O)Nc3ccc4c(CS(C)(=O)=O)cccc4n3)c(C)c12 [Example 111, methanesulfonate] | 8.96

// batch mode: one pIC50 value per listed entry
1. COCc1ccc(C(C)=O)c2sc(C(=O)Nc3ccc4c(C(=O)N5CC(OC)C5)cccc4n3)c(C)c12 [Example 105, methanesulfonate]
2. CC(=O)c1ccc(C(C)=O)c2c(C)c(C(=O)Nc3cc(C(C)(C)O)c4ccccc4n3)sc12 [Example 6, methanesulfonate]

*A*
[8.68, 8.29]
